Molecular target: T1, mgp130 ECD antigen (mouse, UniProt Q00560 23-617)
T1 construct: Antigen of biopanning and PE-ELISA; The immunogen was an ECD-human IgG1 hinge-Fc fusion; also called ECD of mouse gp130; ngp130 ECD antigen (so in the source)
T1 sequence: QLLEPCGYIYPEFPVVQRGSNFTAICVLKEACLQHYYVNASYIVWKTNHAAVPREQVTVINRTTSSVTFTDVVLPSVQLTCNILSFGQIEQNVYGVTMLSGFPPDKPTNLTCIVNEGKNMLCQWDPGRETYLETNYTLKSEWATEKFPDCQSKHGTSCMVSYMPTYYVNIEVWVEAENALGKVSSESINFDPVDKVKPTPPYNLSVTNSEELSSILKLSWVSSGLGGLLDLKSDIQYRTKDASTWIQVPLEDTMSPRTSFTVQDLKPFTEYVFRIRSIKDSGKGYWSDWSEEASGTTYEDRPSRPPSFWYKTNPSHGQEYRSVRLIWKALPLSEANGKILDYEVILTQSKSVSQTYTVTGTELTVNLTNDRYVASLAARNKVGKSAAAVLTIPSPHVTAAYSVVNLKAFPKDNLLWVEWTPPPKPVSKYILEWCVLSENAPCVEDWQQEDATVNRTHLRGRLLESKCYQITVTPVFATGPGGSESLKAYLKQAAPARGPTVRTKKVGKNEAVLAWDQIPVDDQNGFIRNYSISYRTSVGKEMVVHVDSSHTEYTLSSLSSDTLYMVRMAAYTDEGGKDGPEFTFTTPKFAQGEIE
Test: periplasmic extract ELISA (PE-ELISA) of phage clones
reported.property: binding result

In the examples that follow, each entry is paired with its recorded binding result.
mgp130_VHH34 (VHH, As periplasmic extract of the phage clone; also called anti-mouse gp130 VHH; not shown: HA/His tag of the pMECS phagemid) VHH: QVQLQESGGGLVQPGGSLRLSCAASGFTFRSYAMSWVRQAPGKGLEWVSAINSGGGSTYYADSVKARFTISRDNAKNTLYLQLNSLKTEDTAMYYCAKHVTGDYDPSLRYEYNYWGQGTQVTVSS = binds
mgp130_VHH10 (VHH, As periplasmic extract of the phage clone; also called anti-mouse gp130 VHH; not shown: HA/His tag of the pMECS phagemid) VHH: QVQLQESGGGLVQPGGSLRLSCTASGFTFRNYAMSWVRQAPGKGLEWVSAINSGGGSTYYADSVKGRFTISRDNAKNTLYLRLHSLKTEDTAMYYCAKHVTGDYDPSLRYEYNYWSQGTQVTVSS = binds
mgp130_VHH29 (VHH, As periplasmic extract of the phage clone; also called anti-mouse gp130 VHH; not shown: HA/His tag of the pMECS phagemid) VHH: QVQLQESGGGLVQPGGSLRLSCAASGFTFSSYAMSWVRQAPGKGLEWVSAINSGGASTYYADSVKGRFTISRDNAKNTLYLQLNSLKTEDTAMYCCAKHVTGDYDPSLRYEYNCWGPGTQVTVSS = binds
mgp130_VHH26 (VHH, As periplasmic extract of the phage clone; also called anti-mouse gp130 VHH; not shown: HA/His tag of the pMECS phagemid) VHH: QVQLQESGGGSVQAGGSLRLSCVISGFVYKQTFMGWFRQVPGKEREGVAAISTGGGSTVYADSVKGRFTISQDSSKNTVYLEMNGLKLEDTGMYYCAASTVITSVSINRGLYQYWGQGTQVTVSS = binds
mgp130_VHH41 (VHH, As periplasmic extract of the phage clone; also called anti-mouse gp130 VHH; not shown: HA/His tag of the pMECS phagemid) VHH: QVQLQESGGGSVQAGGSLRLSCGISGFTYRPTFMGWFRQVLGKEREGVAAISTGGGSTVYADSVKGRFTISQDSSKDTVYLEMNGLKLEDTGMYYCAASTVITSESINRNLYQYWGQGTQVTVSS = binds
mgp130_VHH15 (VHH, As periplasmic extract of the phage clone; also called anti-mouse gp130 VHH; not shown: HA/His tag of the pMECS phagemid) VHH: QVQLQESGGGSVQAGGSLRLSCVISGFTYRQTFMGWFRQVVGKEREGVAAISTGGGSTVYADSVKGRFTISQDSSKDTVYLEMNGLKLEDTGMYYCAASTVITSESIYRNLYQYWGQGTQVTVSS = binds
mgp130_VHH14 (VHH, As periplasmic extract of the phage clone; also called anti-mouse gp130 VHH; not shown: HA/His tag of the pMECS phagemid) VHH: QVQLQESGGGSVQAGGSLRLSCVISGFTYKQTFMGWFRQVPGKEREGVAAISTGGGSTVYADSVKGRFTISQDSSKNTVYLEMNGLKLEDTGMYYCAASTVITSVSINRGLYQYWGQGTQVTVSS = binds
mgp130_VHH6 (VHH, As periplasmic extract of the phage clone; also called anti-mouse gp130 VHH; not shown: HA/His tag of the pMECS phagemid) VHH: QVQLQESGGGLVQPGGSLRLSCAASGFTLSTYWMYWVRQAPGKGPEWVSAVSRGGFNTYYADSVKGRFTISRDNAKNTVYLQMNSLKPEDTAVYYCMSSVSFYGWPPDRVPSPTGQGTQVTVSS = binds
mgp130_VHH35 (VHH, As periplasmic extract of the phage clone; also called anti-mouse gp130 VHH; not shown: HA/His tag of the pMECS phagemid) VHH: QVQLQESGGGLVQPGGSLRLSCAASGFTFSSYAMSWVRQAPGKGLEWVSAINSGGGSTYYADSVKGRFTISRDNAKNTLYLQLNSLKTEDTAMYYCAKHITGDYDPSLRYEYNYWGQGTQVTVSS = binds
mgp130_VHH25 (VHH, As periplasmic extract of the phage clone; also called anti-mouse gp130 VHH; not shown: HA/His tag of the pMECS phagemid) VHH: QVQLQESGGGSVQAGGSLRLSCVISGFTYKQTFMGWFRQVPGKEREGVAAISTGGGSTVYADSVKGRFTISQDSSKNTVYLEMNGLKLEDTGMYYCAASTVITSVTINRGLYQYWGQGTQVTVSS = binds

Entry mgp130_VHH37 (VHH, As periplasmic extract of the phage clone; also called anti-mouse gp130 VHH; not shown: HA/His tag of the pMECS phagemid) VHH: QVQLQESGGGPVQAGGSLRLSCVISGFTYRQTFMGWFRQVPGKEREGVAAISTGGGSTVYADSVKGRFTISQDSSKNTVYLEMNGLKLEDTGMYYCAASTVITSESINRGLYQYWGQGTQVTVSS — recorded binding result = binds

Entry mgp130_VHH1 (VHH, As periplasmic extract of the phage clone; also called anti-mouse gp130 VHH; not shown: HA/His tag of the pMECS phagemid) VHH: QVQLQESGGGSVQAGGSLRLSCVISGFTYRQTFMGWFRQVLGKEREGVAAISTGGGSTVYADSVKGRFTISQDSSKNTVYLEMNGLKLEDTGMYYCAASTVITSVSINRGLYQYWGQGTQVTVSS — recorded binding result = binds

Entry mgp130_VHH8 (VHH, As periplasmic extract of the phage clone; also called anti-mouse gp130 VHH; not shown: HA/His tag of the pMECS phagemid) VHH: QVQLQESGGGSVQAGGSLRLSCVISGFTYRPTFMGWFRQVLGKEREGVAAITTGGGSTVYADSVKGRFTISQDSSKNTVYLEMNGLKLEDTGMYYCAATTVITSVSINRNLYQYWGQGTQVTVSS — recorded binding result = binds

Entry mgp130_VHH9 (VHH, As periplasmic extract of the phage clone; also called anti-mouse gp130 VHH; not shown: HA/His tag of the pMECS phagemid) VHH: QVQLQESGGGSVQAGGSLRLSCGISGFTYRPTFMGWFRQVLGKEREGVAAISTGGGSSVYADSVKGRFTVSQDSSKNTVYLEMNGLKLEDTGMYYCAASTVITSVSINRGLYQYWGQGTQVTVSS — recorded binding result = binds
